# run-description: in vitro
# Assay type: cell-based
# details: human, HepG2 or HepG2.117 cells, 3-days incubation (unmarked values), ATPlite; mean value
measured-property: CC50 at 3 days

>>> val("C[C@@H]1Cc2c(nc(NC(C)(C)c3cnn(C)c3)n(-c3ccc(S(C)(=O)=O)cc3)c2=O)CN1C(=O)c1ccc(Cl)c(Cl)c1")
"> 50 µM"
>>> val("CNC(=O)c1ccc(-n2c(N3CCC[C@H]3C3CC3)nc3c(c2=O)C[C@@H](C)N(C(=O)c2ccc(Cl)c(Cl)c2)C3)cc1 (single isomer, unassigned)")
"19.5 µM"
>>> val("Cc1ncccc1-n1c(NC(C)C)nc2c(c1=O)CCN(C(=O)c1ccc(Cl)c(Cl)c1)C2")
"28.3 µM"
>>> val("CC(C)Nc1nc2c(c(=O)n1-c1ccc(S(C)(=O)=O)cc1)CCN(C(=O)c1ccc3c(c1)CCO3)C2")
"> 50 µM"
>>> val("COc1ccc(CNc2nc3c(c(=O)n2-c2ccc(N4CCC(NC(=O)OC(C)(C)C)C4)cc2)CCN(C(=O)c2ccc(Cl)c(Cl)c2)C3)cc1 (stereo not shown)")
"> 50 µM"
>>> val("CNC(=O)c1ccc(-n2c(N[C@H](C)c3ccnn3C)nc3c(c2=O)C[C@@H](C)N(C(=O)c2ccc(Cl)c(Cl)c2)C3)cc1 (single isomer, unassigned) [Compound C372a]")
"> 50 µM"
>>> val("COc1ccc(CNc2nc3c(c(=O)n2-c2cnccc2C)CCN(C(=O)c2ccc(Cl)c(Cl)c2)C3)cc1")
"19.4 µM"
>>> val("CNC(=O)c1ccc(-n2c(N[C@H](C)CC(=O)O)nc3c(c2=O)C[C@@H](C)N(C(=O)c2ccc(Cl)c(Cl)c2)C3)cc1")
"> 50 µM"
>>> val("CNC(=O)[C@H]1CC[C@H](n2c(NC(C)C)nc3c(c2=O)C[C@@H](C)N(C(=O)c2ccc(Cl)c(Cl)c2)C3)CC1")
"> 50 µM"
>>> val("CC(C)Nc1nc2c(c(=O)n1-c1ccc(-c3cscn3)cc1)CCN(C(=O)c1ccc(Cl)c(Cl)c1)C2")
"> 50 µM"
>>> val("COc1ccc(CNc2nc3c(c(=O)n2-c2ccccc2OC)C[C@@H](C)N(C(=O)c2ccc(Cl)c(Cl)c2)C3)cc1 (single isomer, unassigned) [Compound C36Aa]")
"> 50 µM"
>>> val("COc1ccc(CNc2nc3c(c(=O)[nH]2)CCN(C(=O)c2cc4ccc(Cl)cc4[nH]2)C3)cc1")
"37.5 µM"
>>> val("COc1ccccc1-n1c(NCc2ccc(S(C)(=O)=O)cc2)nc2c(c1=O)CCN(C(=O)c1ccc(Cl)c(Cl)c1)C2")
"> 50 µM"
